# study.target: T1, human IL6R-Fc protein (human, biotin-labeled in the ELISAs (sites not given))
# T1 construct: In house made; also called biotin-labeled human IL6R-Fc protein
# T1 sequence (chain, as listed by the source limits assumed): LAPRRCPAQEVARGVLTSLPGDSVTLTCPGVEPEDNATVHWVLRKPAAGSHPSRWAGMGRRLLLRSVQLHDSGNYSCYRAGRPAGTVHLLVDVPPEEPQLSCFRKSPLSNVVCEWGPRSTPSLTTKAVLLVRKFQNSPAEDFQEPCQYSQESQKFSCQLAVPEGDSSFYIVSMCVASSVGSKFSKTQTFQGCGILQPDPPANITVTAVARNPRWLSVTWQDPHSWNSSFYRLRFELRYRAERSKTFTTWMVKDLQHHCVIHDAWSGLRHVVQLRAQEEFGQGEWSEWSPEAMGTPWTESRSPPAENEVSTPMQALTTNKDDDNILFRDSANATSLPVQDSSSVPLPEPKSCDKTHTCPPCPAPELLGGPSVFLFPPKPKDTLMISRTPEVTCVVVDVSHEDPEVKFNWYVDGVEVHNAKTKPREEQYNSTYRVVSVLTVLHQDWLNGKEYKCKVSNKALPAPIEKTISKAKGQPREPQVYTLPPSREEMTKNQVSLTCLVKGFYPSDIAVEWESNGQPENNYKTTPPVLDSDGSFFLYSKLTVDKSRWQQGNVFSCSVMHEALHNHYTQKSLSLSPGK
# test.description: benchmark blocking ELISA: antibody pre-incubated with biotin-labeled human IL6R-Fc, added to plate-coated Tocilizumab (competitor: Tocilizumab)
pIC50: −log10 of the molar value.
property.name: pIC50

binder: Chimeric 1H7 (antibody, human IgG1, kappa, V domains shown, Mouse variable regions on human IgG1 / human kappa constant regions; also called chimeric antibody 1H7) VH: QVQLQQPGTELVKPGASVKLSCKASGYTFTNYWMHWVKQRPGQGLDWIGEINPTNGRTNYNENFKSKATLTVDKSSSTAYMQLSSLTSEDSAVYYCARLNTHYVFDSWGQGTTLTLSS VL: EIVLTQSPTTLAASPGEKITFTCSVSSSISSNYLHWYQQKPGFSPKLLISRTSTLASGVPARFSGSGSGTSYSLTIGTMEAEDVATYYCQQGSGIPFTFGSGTKLELKR
property.name: pIC50
measured.result: 9.71

binder: Tocilizumab (antibody, human IgG1, kappa, V domains shown, In house made; also called benchmark; Actemra) VH: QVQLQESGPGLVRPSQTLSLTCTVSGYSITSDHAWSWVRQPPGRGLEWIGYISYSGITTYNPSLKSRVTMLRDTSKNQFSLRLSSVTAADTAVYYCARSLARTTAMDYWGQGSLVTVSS VL: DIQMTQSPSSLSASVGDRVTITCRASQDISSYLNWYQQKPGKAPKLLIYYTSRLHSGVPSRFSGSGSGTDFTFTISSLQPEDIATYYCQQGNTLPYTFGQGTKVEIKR
property.name: pIC50
measured.result: 9.09

binder: Chimeric 1B5 (antibody, human IgG1, kappa, V domains shown, Mouse variable regions on human IgG1 / human kappa constant regions; also called chimeric antibody 1B5) VH: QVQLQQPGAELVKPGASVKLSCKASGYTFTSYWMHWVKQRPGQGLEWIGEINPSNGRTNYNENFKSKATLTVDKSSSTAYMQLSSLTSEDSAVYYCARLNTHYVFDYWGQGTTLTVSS VL: EIVLTQSPTILAASPGEKITFTCSVSSSISSNYLHWYQQKPGFSPKLLIYRTSNLASGVPARFSGSGSGTSYSLTIGTMEAEDVATYYCQQGSGIPFTFGSGTKLEIKR
property.name: pIC50
measured.result: 9.50

binder: mouse anti-IL6R monoclonal antibody 1B5 (antibody, V domains shown, Mouse hybridoma mAb) VH: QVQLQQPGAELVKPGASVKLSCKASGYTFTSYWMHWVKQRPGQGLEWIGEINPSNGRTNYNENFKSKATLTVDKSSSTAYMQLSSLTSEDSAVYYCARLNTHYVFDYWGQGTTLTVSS VL: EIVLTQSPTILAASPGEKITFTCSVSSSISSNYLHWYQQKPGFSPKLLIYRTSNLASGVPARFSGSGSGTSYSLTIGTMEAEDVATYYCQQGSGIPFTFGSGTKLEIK
property.name: pIC50
measured.result: 9.64
